test system: CD2F1 mice, L1210 leukemia ip, survival T/C; experiment: NCI In Vivo Anticancer Drug Screen. Data for tumor model L1210 Leukemia (intraperitoneal) in CD2F1 (CDF1) mice; conditions: endpoint: mean survival time; dose: 200.0 mg/kg/injection; schedule: Q01DX009 (ip); vehicle: Klucel (hydroxypropylcellulose) (HPC); higher = longer survival
Inconclusive results and toxic doses are left out.
Assay Metric: T/C

Sample answers from the record:
CC(=O)c1ccc2c3ccccc3n(C)c2c1: 93 % of control
O=C(N/N=C/c1ccc(Cl)c(Cl)c1)c1ccccc1: 90 % of control
O=NN(CCCl)C(=O)Nc1ccc2[nH]c3ccccc3c2c1: 123 % of control
Cc1c(O)c2c(c(O)c1Cc1ccc(C#N)cc1)C(=O)c1ccccc1C2=O: 94 % of control
CCOC(=O)/C(N=Nc1ccc(O)cc1)=C(\C)O: 96 % of control

Given `COc1cc(OC)c(OC)cc1/C=C\c1ccnc2ccccc12` , state its recorded T/C.
112 % of control

Requested field: T/C. Item: `COc1ccc(CNc2ccc([N+](=O)[O-])c3nonc23)cc1`
94 % of control

Which T/C is listed for `CC(C)(C)CC(C)(C)c1ccc(OCCOc2ccc(C(=O)Nc3ccc([N+](=O)[O-])cc3)cc2)cc1` ?
105 % of control

T/C lookup needed for `O=C(NCCCCCCNC(=O)Nc1cccc(Cl)c1)Nc1cccc(Cl)c1` , thanks.
88 % of control
